The measured values listed here are drawn from the supplement of paper PMC11451515.

Exercise: state measured cell viability for each of the compounds provided.
System: NOMO1
Assay: cell viability relative to DMSO control; higher = less cytotoxic
Settings: HPLM + 10% dialyzed FBS; 48 h; 0.00234 µM
State the answer as a number, implicitly in %.

Query: Using the record for `COc1ccc(-c2nc(N3CCOCC3)c3sc(CN(C)c4ncc(C(=O)NO)cn4)cc3n2)cn1` , report its cell viability.
Result: 132

Query: Using the record for `CSCC[C@@H](NC(=O)[C@@H](Cc1ccccc1)NC(=O)CNC(=O)CNC(=O)[C@@H](N)Cc1ccc(O)cc1)C(=O)O` , report its cell viability.
Result: 90.8

Query: Using the record for `Cc1cccc(Nc2nc(-c3ccncc3)cs2)c1` , report its cell viability.
Result: 138

Query: Using the record for `COCCCN1CCC(NC(=O)c2cc(Cl)c(N)c3c2OCC3)CC1` , report its cell viability.
Result: 124

Query: Using the record for `CCN1\C=C(\C(O)=O)C(=O)C2=CC=C(C)N=C12` , report its cell viability.
Result: 87.7

---

Exercise: state measured cell viability for each of the compounds provided.
System: SEM cells
Assay: cell viability relative to DMSO control; higher = less cytotoxic
Conditions: RPMI 5 mM glucose + 10% dialyzed FBS; 48 h; 0.19 µM
State the answer as a number, implicitly in %.

Query: Under SEM cells: cell viability value of `Cn1c(CNc2ccc(C(=N)N)cc2)nc2cc(C(=O)N(CCC(=O)O)c3ccccn3)ccc21` ?
Result: 104

Query: Under SEM cells: cell viability value of `C/C=C(/C)C(=O)O[C@H]1C(C)=C[C@]23C(=O)[C@@H](C=C(CO)[C@@H](O)[C@]12O)[C@H]1[C@@H](C[C@H]3C)C1(C)C` ?
Result: 93.7

Query: Under SEM cells: cell viability value of `C\C1=C(\C=C(C#N)/C(=O)N1)C2=C[N]3C=CN=C3C=C2` ?
Result: 77.7

Query: Under SEM cells: cell viability value of `CN(NC(=O)CC(=O)NN(C)C(=S)c1ccccc1)C(=S)c1ccccc1` ?
Result: 5.14

---

System: P12-Ichikawa
Test: cell viability relative to DMSO control; higher = less cytotoxic
Conditions: HPLM + 10% dialyzed FBS; 48 h; 0.0632 µM
endpoint: cell viability (%)
State the answer as a number, implicitly in %.

Query: Using the record for `COC(=O)[C@@H]1[C@H]2C[C@H]3c4[nH]c5ccccc5c4CCN3C[C@@H]2CC[C@@H]1O` , report its cell viability.
Result: 122

Query: Using the record for COc1ccc(C2CNC(=O)C2)cc1OC1CCCC1 (stereo not given) , report its cell viability.
Result: 109

Query: Using the record for `CC1(C)O[C@@H]2C[C@H]3[C@@H]4CCC5=CC(=O)C=C[C@]5(C)[C@H]4[C@@H](O)C[C@]3(C)[C@]2(C(=O)CO)O1` , report its cell viability.
Result: 93

Query: Using the record for OC1CCC(Nc2ncc3nc(Nc4c(F)cc(F)cc4F)n([C@@H]4CCOC4)c3n2)CC1 (stereo not given in full) , report its cell viability.
Result: 119

Query: Using the record for `Cc1cnc(NC(=O)Nc2cc(Br)c(C)cc2OC[C@@H]2CNCCO2)cn1` , report its cell viability.
Result: 120

---

System: P12-Ichikawa
Assay: cell viability relative to DMSO control; higher = less cytotoxic
Details: HPLM + 10% dialyzed FBS; 48 h; 46.1 µM
Could you please mark fulfilled for values of cell viability below 90% and not fulfilled for values at or above it?

Query: For `Cc1[nH]c2ccccc2c1CCNCc1ccc(/C=C/C(=O)NO)cc1` , is the recorded cell viability below the cut-off of 90%?
Result: fulfilled

Query: For `CC(C)(C)c1[nH]cnc1/C=c1\[nH]c(=O)/c(=C/c2ccccc2)[nH]c1=O` , is the recorded cell viability below the cut-off of 90%?
Result: fulfilled

Query: For `FC1=CC=C(SC/2=N/N3\C=N/C(=O)/C(=C3/C=C2)C4=C(Cl)C=CC=C4Cl)C(=C1)F` , is the recorded cell viability below the cut-off of 90%?
Result: fulfilled

Query: For `O=C(O[C@H]1C[C@H]2CC[C@@H](C1)[N+]21CCCC1)C(O)(c1ccccc1)c1ccccc1.[Cl-]` , is the recorded cell viability below the cut-off of 90%?
Result: not fulfilled
